# ASSAY EXPLANATION: growth suppression of yeast trafficking mutant, preliminary HTS, modulators of trafficking downstream of Golgi apparatus project, 1536-format plate, OD 615 nm (AID 637)
# CONDITION DETAILS: yeast transport mutant growth, absorbance 615 nm, 18 h; stronger effect = higher value
We begin with a simple list: items and their reported inhibition.
Record the value in %, omitting the unit from your answer.

// known answers, use as guide
In [3]: df
Out[3]:
                                   compound  test_value
0                O=C(O)C1(c2ccc(Cl)cc2)CCC1       -3.02
1  O=C(CN1C2CCC1CC(O)(c1cccnc1)C2)Nc1ccc2c(c1)OCO2 (configuration not stated)        3.44
2  CC1=NOC2(C)Nc3ncnn3C(c3ccccc3)C12 (configuration not stated)         7.9

Consider the compound CC1=C(C(=O)N2CCC3(CC2)OCCO3)C2(CCC(C)CC2)OC1=O (configuration not stated) and give its measured inhibition.
0.17

Moving on to the next compound: OCC12COC3c4ccccc4C(OC1)N32 (configuration not stated)
-5.81

Moving on to the next compound: O=C1OCCC1NC1=NCCC1 (configuration not stated)
-5.41

Moving on to the next compound: "CSc1ccc(C(=O)C(C)(C)N2CCOCC2)cc1"
6.56

----------
# TARGET SYSTEM: Pantothenate synthetase (Mycobacterium tuberculosis (strain ATCC 25618 / H37Rv)) (UniProt P9WIL5)
# Sequence (P9WIL5 whole entry, looked up): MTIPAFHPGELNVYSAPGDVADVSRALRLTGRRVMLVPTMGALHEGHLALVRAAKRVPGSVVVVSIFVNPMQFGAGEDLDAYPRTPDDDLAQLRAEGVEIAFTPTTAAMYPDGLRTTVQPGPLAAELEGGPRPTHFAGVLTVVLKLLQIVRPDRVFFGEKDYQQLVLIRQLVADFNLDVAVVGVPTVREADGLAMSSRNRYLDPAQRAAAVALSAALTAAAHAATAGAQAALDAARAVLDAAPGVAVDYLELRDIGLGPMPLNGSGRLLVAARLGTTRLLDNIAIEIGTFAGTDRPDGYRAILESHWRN
# ASSAY EXPLANATION: Coupled enzyme confirmation of inhibitors against recombinant Mtb PanC (AID 375);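 also: 0% = full reaction with vehicle and 100% = no enzyme background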
# CONDITION DETAILS: coupled enzyme assay; at 10 µM, stronger effect = higher value
We begin with a simple list: items and their reported inhibition.
Record the value in %, omitting the unit from your answer.

                                   compound  test_value
0  C/C(N)=C(/C#N)C(=O)COC(=O)COc1ccc(Cl)cc1           5
1  CC(CCc1ccco1)NC(=O)Cn1ncc2c1-c1ccccc1OC2 (stereo not drawn)           5
2  CCc1ccccc1NC(=O)C(C#N)Cc1cccnc1 (stereo not drawn)           0
3  O=C(Nc1ncc2c(n1)CC(c1ccccc1)CC2=O)c1ccco1 (stereo not drawn)           3
4  COC(=O)c1ccc(CNC(=O)CSc2nc3sc(C)c(C)c3c(=O)n2C)o1           0

Consider the compound "COc1ccc(N2CCN(CCNC(=O)CCS(=O)(=O)c3cccc4nsnc34)CC2)cc1" and give its measured inhibition.
0

Moving on to the next compound: CC1Oc2ccccc2N(CC(=O)N(Cc2ccccc2)Cc2ccccn2)C1=O (stereo not drawn)
4

Moving on to the next compound: "CCCC(=O)Nc1ccc(NC(=O)c2ccccc2OC)cn1"
0

Moving on to the next compound: "COc1ccc2cnn(-c3ccccc3C)c(=O)c2c1OC"
3

Moving on to the next compound: "CN(C(=O)c1ccccn1)c1nnc(-c2ccncc2)s1"
0

Moving on to the next compound: Cc1c(C(=O)OCC(C)C)[nH]c2c1C(=O)CC(c1ccco1)C2 (stereo not drawn)
1

Moving on to the next compound: "Cc1nc(Nc2nc(=O)c3ccccc3n2C)nc2c(C)cccc12"
0

Moving on to the next compound: "O=C(O)C1(c2ccc(Cl)cc2)CCC1"
0

Moving on to the next compound: "COc1ccccc1OC(=O)c1ccc(SC)cc1OC"
2

Moving on to the next compound: "O=C(CS(=O)(=O)c1cn(Cc2ccc(F)cc2)c2ccccc12)N1CCCCC1"
0

Moving on to the next compound: "CCOC(=O)c1c(N)sn(-c2ccccc2)c1=S"
5

Moving on to the next compound: O=C(C1CCCCC1)N1CC(=O)N2CCc3ccccc3C2C1 (stereo not drawn)
3

Moving on to the next compound: CCN(CC)CCN1C(=O)C(=O)/C(=C(/O)c2ccc(OC(C)C)cc2)C1c1ccncc1 (stereo not drawn)
5

Moving on to the next compound: "CCOc1cc2[nH]c(=O)n(CCCCC(=O)N3CCCCCC3)c(=O)c2cc1OCC"
2

Moving on to the next compound: "COC(=O)C1=C(C)N(c2ccc(C(=O)OC)cc2)C(=O)C1"
0

Moving on to the next compound: "CCOc1ccc(S(=O)(=O)Nc2ccc(Cl)cn2)c(C)c1C"
0

Moving on to the next compound: "CCOC(=O)c1cc(-c2ccc(Cl)s2)nc2c1c(C)nn2C"
0

Moving on to the next compound: COc1ccc(C(c2nnnn2C2CCCC2)N2CCN(C3CCCC3)CC2)cc1OC (stereo not drawn)
4

----------
# TARGET SYSTEM: Pantothenate synthetase (Mycobacterium tuberculosis (strain ATCC 25618 / H37Rv))
# ASSAY EXPLANATION: Coupled enzyme confirmation of inhibitors against recombinant Mtb PanC (AID 375);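 also: 0% = full reaction with vehicle and 100% = no enzyme background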
# CONDITION DETAILS: coupled enzyme assay; at 10 µM, stronger effect = higher value
OUTCOME MEASURE: inhibition (%)
Record the value in %, omitting the unit from your answer.

// known answers, use as guide
COMPOUND	OUTCOME MEASURE	UNIT TAG	TEST VALUE
c1ccc(CCc2nc(-c3cccnc3)no2)cc1	inhibition	%	0
CC(CCc1ccccc1)NC(=O)C1CCN(S(=O)(=O)c2cnc[nH]2)CC1 (stereo unspecified)	inhibition	%	4
O=C(c1ccccc1)N1CCCCC(Sc2nnnn2-c2ccccc2)C1=O (stereo unspecified)	inhibition	%	0
COc1ccccc1/C=C1/C(=N/O)C2CCN1CC2	inhibition	%	0
COc1ccc(CCn2c(N)c(C#N)c3nc4ccccc4nc32)cc1OC	inhibition	%	0
CCN1CCN(S(=O)(=O)c2ccc(S(=O)(=O)N(CC)Cc3ccccc3)cc2)CC1	inhibition	%	7
COc1cc(C2Oc3cc(C4Oc5cc(O)cc(O)c5C(=O)C4O)ccc3OC2CO)ccc1O (stereo unspecified)	inhibition	%	0
Cc1ccc(Cn2nnc3c(=O)[nH]c(C4CCN(S(=O)(=O)c5ccc(F)cc5)CC4)nc32)cc1	inhibition	%	3

Consider the compound "CCSc1nncn1/N=C/c1ccc(OC)c(OC)c1" and give its measured inhibition.
4

Moving on to the next compound: CN1CCCN(C(c2ccccc2)c2ccc(Cl)cc2)CC1 (stereo unspecified)
0

----------
# ASSAY EXPLANATION: Her2 expression decrease, cell viability multiplex – SKBR3 breast tumor cells, AlphaScreen, ATP viability, primary screen (AID 461);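 also: percent of carrier control wells set as 100% viability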
# CONDITION DETAILS: SKBR3 Her2 protein level, 18-24 h, measured here: SKBR3 viability, ATP luminescence, at 10 µM
Field 'label' (enum: rule met / rule not met). Set to rule met when viability is strictly under 90%; else rule not met.

Worked set:
In [3]: df
Out[3]:
                                   compound    class_name
0  CCOc1ccc(-n2c(O)c(C=NCCN(CC)CC)c(=O)[nH]c2=O)cc1      rule met
1  c1ccc2c(c1)OCC(C1=NCCN1)O2 (stereo unspecified)  rule not met
2  O=C(CN1C(=O)CN=C(c2ccccc2)c2ccccc21)NCc1ccco1  rule not met
3  Cc1cc(NC(=O)COC(=O)c2c(C)nn(Cc3ccccc3)c2Cl)no1  rule not met
4  Cn1c(=O)cc(OCC(=O)N2CCN(C3CCCCC3)CC2)c2ccccc21      rule met
5  C=CCn1c(O)c(C(C)=NCc2cccnc2)c(=O)[nH]c1=O  rule not met
6  O=C(COc1ccc2ccccc2c1)N1CCN(C2CCN(Cc3ccccc3)CC2)CC1  rule not met

Could you now consider this next compound?
Decide: viability of "CCN1CCN(C(=O)COc2cc(=O)n(CC)c3ccccc23)CC1" strictly below 90%?
rule met

----------
# TARGET SYSTEM: Pantothenate synthetase (Mycobacterium tuberculosis (strain ATCC 25618 / H37Rv))
# ASSAY EXPLANATION: Coupled enzyme confirmation of inhibitors against recombinant Mtb PanC (AID 375);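 also: 0% = full reaction with vehicle and 100% = no enzyme background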
# CONDITION DETAILS: coupled enzyme assay; at 10 µM, stronger effect = higher value
OUTCOME MEASURE: inhibition (%)
Record the value in %, omitting the unit from your answer.

// known answers, use as guide
                                   compound  test_value
0    OCCn1c(-c2ccc3c(c2)OCO3)csc1=Nc1ccccc1           1
1  COc1ccccc1NC(=O)C1=C(C)Nc2ncnn2C1c1ccc(C)o1 (stereo unspecified)          10
2  O=C(Nc1ccc2c(c1)OCO2)C(c1ccc(Cl)cc1)N1CCN(C(=O)c2ccco2)CC1 (stereo unspecified)           0
3  CCCN1CCN(CCCNC(=O)Cn2ncc3c4ccccc4n(C)c3c2=O)CC1           3
4  COc1ccc(NC(=O)CSc2nnc(-c3ccncc3)n2CC2CCCO2)c(OC)c1 (stereo unspecified)           4
5  N#CC(C(=O)NCCc1ccccc1)c1nc2ccccc2nc1N1CCOCC1 (stereo unspecified)           0

Give inhibition (Pantothenate synthetase (Mycobacterium tuberculosis (strain ATCC 25618 / H37Rv))) of the following compound: "C=CCn1c(SCc2ccc(C#N)cc2)nnc1-c1cccc(Cl)c1"
1

Moving on to the next compound: "CSc1nc(N2CCOCC2)c2c(c1C#N)CCCCC2"
0

Moving on to the next compound: "Cc1cc(C)c2c(=O)n(CC(=O)N3CCC(Cc4ccccc4)CC3)sc2n1"
0

Moving on to the next compound: "Cn1c(=O)[nH]c(=O)c2c1nc(Br)n2Cc1ccccc1F"
0

Moving on to the next compound: CCOCCCNC(=O)C1CCCN(S(=O)(=O)CC)C1 (stereo unspecified)
0
